The measurements presented in this section are drawn from patent US20210214461A1.

- tested-on: pre-existing anti-scFv903 antibodies in human serum H21 (human)
- assay-method-text: competition ADA bridging ELISA
reported-property: signal change in competition ELISA (% reduction in OD)
Param answer (str): number followed by unit.

Provide only the value of recorded signal change in competition ELISA (% reduction in OD) for scFv 791 (scFv) scFv: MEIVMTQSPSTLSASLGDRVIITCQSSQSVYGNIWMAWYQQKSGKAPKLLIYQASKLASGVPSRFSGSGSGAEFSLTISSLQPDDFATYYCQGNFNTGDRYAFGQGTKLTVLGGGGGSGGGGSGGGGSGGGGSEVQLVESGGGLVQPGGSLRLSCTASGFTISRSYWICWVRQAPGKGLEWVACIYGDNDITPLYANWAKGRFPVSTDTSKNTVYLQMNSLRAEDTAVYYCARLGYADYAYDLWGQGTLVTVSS
-85%
